test.system: HLA-B*08:01
assay.protocol: IEDB peptide-MHC binding, purified MHC/direct/fluorescence; filed as Kd, often an IC50 or EC50 that approximates it; bounds were set here for any values at or beyond the usual limits of such assays
condition.description: source organism: Salmonella enterica subsp. enterica serovar Typhimurium
reported.property: Kd

Which Kd value is on record for FMIDWILDA ?
≥ 20 µM

----------
test.system: HLA-A*31:01
assay.protocol: IEDB peptide-MHC binding, purified MHC/competitive/radioactivity; filed as Kd, often an IC50 or EC50 that approximates it; bounds were set here for any values at or beyond the usual limits of such assays
condition.description: source organism: Dengue virus 2 Jamaica/1409/1983
reported.property: pKd
pKd (log units): -log10 of the concentration in mol/L.

If you can, please state the reported pKd value of AMAFHLTTR .
8.80

Input TAMAFHLTTR
8.04

The reported measurements were obtained from the Immune Epitope Database (IEDB).
